Kindly state Tox 120 h TC50 for each of the entries shown.
# Test system: BS-C-1 cells
# Condition Set: African green monkey

Bench note, BS-C-1 cells: CC(=O)n1c2ccccc2c2nc(C)sc21 [Compound 15] , Tox 120 h TC50 reads 75 ∞M

Bench note, BS-C-1 cells: CCNc1nc(SCc2ccc(Cl)cc2)nc2sc3c(c12)CCN(C)C3 [Compound 5] , Tox 120 h TC50 reads 5 ∞M

Bench note, BS-C-1 cells: Cc1cc(/N=C/c2cc(Cl)cc(Cl)c2O)no1 [Compound 6] , Tox 120 h TC50 reads 20 ∞M

Bench note, BS-C-1 cells: COC(=O)c1cccc2c1-c1ccccc1/C2=N\O [Compound 1] , Tox 120 h TC50 reads 20 ∞M

Bench note, BS-C-1 cells: Cc1cc(OC(=O)c2ccco2)nc(SCc2c(Cl)cccc2Cl)n1 [Compound 8] , Tox 120 h TC50 reads >100 ∞M

Bench note, BS-C-1 cells: Cc1c(/N=C/c2cc(Br)cc(Br)c2O)cccc1C(=O)O [Compound 7] , Tox 120 h TC50 reads 20 ∞M

Bench note, BS-C-1 cells: CCn1c2ccccc2c2ccc(/C=N/n3cnnc3)cc21 [Compound 3] , Tox 120 h TC50 reads 3 ∞M

Bench note, BS-C-1 cells: Cc1csc2c(N3CCN(C(=O)NC(C)(C)C)CC3)ncnc12 [Compound 4] , Tox 120 h TC50 reads 40 ∞M

Bench note, BS-C-1 cells: Cc1ccc2c(Sc3ccc(Cl)cc3)c(C(=O)O)[nH]c2c1 [Compound 11] , Tox 120 h TC50 reads 120 ∞M

Bench note, BS-C-1 cells: Nc1ccn(C[C@@H](CO)OCP(=O)(O)O)c(=O)n1.O.O [CDV, reference compound] , Tox 120 h TC50 reads 300 ∞M
